Taken from patent US20160022764A1.

TARGET OR TEST SYSTEM: melanocortin-1 receptor (human, UniProt Q01726 1-317)
Sequence (Q01726 whole entry): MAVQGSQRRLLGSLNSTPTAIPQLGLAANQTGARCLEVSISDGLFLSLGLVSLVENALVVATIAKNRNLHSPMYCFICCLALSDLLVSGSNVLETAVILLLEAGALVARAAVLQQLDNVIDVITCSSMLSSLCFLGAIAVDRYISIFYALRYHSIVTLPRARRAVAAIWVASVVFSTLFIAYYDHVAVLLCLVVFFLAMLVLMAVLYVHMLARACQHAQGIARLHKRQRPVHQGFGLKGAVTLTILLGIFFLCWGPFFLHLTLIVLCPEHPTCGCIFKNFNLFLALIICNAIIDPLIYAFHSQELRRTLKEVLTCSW
ASSAY EXPLANATION: cell-based or functional assay
Bridge positions count the residues as written; N and C are the ends. Square brackets hold non-standard residues; d marks the D form.
Hi there, I'd appreciate the recorded cAMP Assay (EC-50) for every entry that follows.
Answers are plain numbers, in nM.

{"BINDER": "Ac-RC[dI]H[dF]RWC-NH2 (disulfide 2-8) [Compound 2: Ac-Arg-cyclo[Cys-D-Ile-His-D-Phe-Arg-Trp-Cys]-NH2]", "cAMP Assay (EC-50) / nM": 0.69}
{"BINDER": "Ac-RC[dA]P[dF]RWC-NH2 (disulfide 2-8; SMILES CC(=O)N[C@@H](CCCNC(=N)N)C(=O)N[C@H]1CSSC[C@@H](C(N)=O)NC(=O)[C@H](Cc2c[nH]c3ccccc23)NC(=O)[C@H](CCCNC(=N)N)NC(=O)[C@@H](Cc2ccccc2)NC(=O)[C@@H]2CCCN2C(=O)[C@@H](C)NC1=O) [Compound 13: Ac-Arg-cyclo[Cys-D-Ala-Pro-D-Phe-Arg-Trp-Cys]-NH2]", "cAMP Assay (EC-50) / nM": 280}

Query: Give the measured cAMP Assay (EC-50) for Ac-RC[dA]W[dF]RWC-NH2 (disulfide 2-8; SMILES CC(=O)N[C@@H](CCCNC(=N)N)C(=O)N[C@H]1CSSC[C@@H](C(N)=O)NC(=O)[C@H](Cc2c[nH]c3ccccc23)NC(=O)[C@H](CCCNC(=N)N)NC(=O)[C@@H](Cc2ccccc2)NC(=O)[C@H](Cc2c[nH]c3ccccc23)NC(=O)[C@@H](C)NC1=O) [Compound 7: Ac-Arg-cyclo[Cys-D-Ala-Trp-D-Phe-Arg-Trp-Cys]-NH2]
Response: 273
